target: CSNK1D (Homo sapiens); test: Kinase selectivity panel; type: biochemical
property.label: IC50

Inquiry: What value of IC50 has been recorded for this entry: c1ccc2c(CNNc3ncnc4sc5c(c34)CCCC5)c[nH]c2c1 [B32B3]
Reply text: > 10 µM

====

biological target: DNAPK (Homo sapiens, UniProt P78527)
property.label: IC50

Inquiry: What value of IC50 has been recorded for this entry: c1ccc2c(CNNc3ncnc4sc5c(c34)CCCC5)c[nH]c2c1 [B32B3]
Reply text: > 10 µM

====

molecular target: AURKB (Homo sapiens)
Sequence (Q96GD4 whole entry): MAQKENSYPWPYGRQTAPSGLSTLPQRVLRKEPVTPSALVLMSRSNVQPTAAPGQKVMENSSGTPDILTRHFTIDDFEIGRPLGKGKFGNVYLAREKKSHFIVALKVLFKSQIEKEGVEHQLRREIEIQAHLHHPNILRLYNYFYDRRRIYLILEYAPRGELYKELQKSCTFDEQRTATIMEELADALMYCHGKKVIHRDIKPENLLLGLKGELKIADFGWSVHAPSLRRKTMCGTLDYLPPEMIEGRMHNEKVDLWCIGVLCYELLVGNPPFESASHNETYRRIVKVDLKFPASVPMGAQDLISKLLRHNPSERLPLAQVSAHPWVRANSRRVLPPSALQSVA
pIC50: −log10 of the molar value.
property.label: pIC50

Inquiry: What value of pIC50 has been recorded for this entry: c1ccc2c(CNNc3ncnc4sc5c(c34)CCCC5)c[nH]c2c1
Reply text: < 5.00

====

target: SYK (Homo sapiens, UniProt P43405)
property.label: IC50

Inquiry: What value of IC50 has been recorded for this entry: c1ccc2c(CNNc3ncnc4sc5c(c34)CCCC5)c[nH]c2c1
Reply text: > 10 µM

====

target: ATM (Homo sapiens, UniProt Q13315)
property.label: IC50

Inquiry: What value of IC50 has been recorded for this entry: c1ccc2c(CNNc3ncnc4sc5c(c34)CCCC5)c[nH]c2c1
Reply text: > 10 µM

====

molecular target: PLK2 (Homo sapiens, UniProt Q9NYY3); assay: Kinase selectivity panel; format: biochemical
pIC50: −log10 of the molar value.
property.label: pIC50

Inquiry: What value of pIC50 has been recorded for this entry: c1ccc2c(CNNc3ncnc4sc5c(c34)CCCC5)c[nH]c2c1 [B32B3]
Reply text: < 5.00

====

target: PLK1 (Homo sapiens, UniProt P53350)
property.label: IC50

Inquiry: What value of IC50 has been recorded for this entry: c1ccc2c(CNNc3ncnc4sc5c(c34)CCCC5)c[nH]c2c1
Reply text: > 10 µM

====

molecular target: LCK (Homo sapiens, UniProt P06239)
Sequence (P06239 whole entry): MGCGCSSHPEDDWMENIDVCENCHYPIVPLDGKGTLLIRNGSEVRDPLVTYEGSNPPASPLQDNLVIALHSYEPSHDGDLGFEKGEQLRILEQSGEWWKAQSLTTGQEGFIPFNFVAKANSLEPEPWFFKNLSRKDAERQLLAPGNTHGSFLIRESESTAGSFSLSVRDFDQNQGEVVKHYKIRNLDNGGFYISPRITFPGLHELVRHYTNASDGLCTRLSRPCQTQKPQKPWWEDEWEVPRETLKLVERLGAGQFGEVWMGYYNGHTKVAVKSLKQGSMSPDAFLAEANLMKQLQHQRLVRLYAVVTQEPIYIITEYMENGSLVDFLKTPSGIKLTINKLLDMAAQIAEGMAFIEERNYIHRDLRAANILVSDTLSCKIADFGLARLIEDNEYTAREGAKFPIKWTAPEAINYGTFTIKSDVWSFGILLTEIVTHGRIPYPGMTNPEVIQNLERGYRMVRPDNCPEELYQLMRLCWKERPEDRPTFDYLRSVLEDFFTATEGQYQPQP
pIC50: −log10 of the molar value.
property.label: pIC50

Inquiry: What value of pIC50 has been recorded for this entry: c1ccc2c(CNNc3ncnc4sc5c(c34)CCCC5)c[nH]c2c1
Reply text: < 5.00

====

Target protein (sequence): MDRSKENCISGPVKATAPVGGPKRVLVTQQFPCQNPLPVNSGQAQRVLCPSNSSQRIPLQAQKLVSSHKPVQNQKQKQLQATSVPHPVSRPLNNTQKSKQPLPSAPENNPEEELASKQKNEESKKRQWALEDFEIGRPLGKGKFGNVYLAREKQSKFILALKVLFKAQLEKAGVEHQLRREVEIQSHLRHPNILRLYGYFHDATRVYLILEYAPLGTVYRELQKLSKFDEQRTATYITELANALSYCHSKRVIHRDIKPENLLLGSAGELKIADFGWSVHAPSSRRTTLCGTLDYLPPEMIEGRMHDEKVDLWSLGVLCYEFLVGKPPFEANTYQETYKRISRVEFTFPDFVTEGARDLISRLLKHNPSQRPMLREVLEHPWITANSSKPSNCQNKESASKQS
pIC50: −log10 of the molar value.
property.label: pIC50

Inquiry: What value of pIC50 has been recorded for this entry: c1ccc2c(CNNc3ncnc4sc5c(c34)CCCC5)c[nH]c2c1
Reply text: < 5.00

====

target: CDK18 (Homo sapiens, UniProt Q07002)
Sequence (Q07002 whole entry): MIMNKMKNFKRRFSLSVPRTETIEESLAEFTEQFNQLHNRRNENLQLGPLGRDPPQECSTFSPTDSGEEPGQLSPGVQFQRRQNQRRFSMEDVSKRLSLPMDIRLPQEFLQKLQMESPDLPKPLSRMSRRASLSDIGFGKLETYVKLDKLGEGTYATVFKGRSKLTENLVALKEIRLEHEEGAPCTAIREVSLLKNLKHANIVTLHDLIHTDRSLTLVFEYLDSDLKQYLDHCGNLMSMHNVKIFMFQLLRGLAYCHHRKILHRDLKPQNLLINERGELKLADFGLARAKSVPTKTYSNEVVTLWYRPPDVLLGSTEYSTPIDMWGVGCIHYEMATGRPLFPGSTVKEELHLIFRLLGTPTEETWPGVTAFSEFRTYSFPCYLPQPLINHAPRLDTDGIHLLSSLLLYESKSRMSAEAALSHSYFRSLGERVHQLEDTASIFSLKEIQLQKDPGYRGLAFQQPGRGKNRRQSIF
pIC50: −log10 of the molar value.
property.label: pIC50

Inquiry: Which measured pIC50 belongs to c1ccc2c(CNNc3ncnc4sc5c(c34)CCCC5)c[nH]c2c1 [B32B3] , tested on CDK18 (Homo sapiens, UniProt Q07002)?
Reply text: < 5.00

====

target: HCK (Homo sapiens)
Sequence (P08631 whole entry): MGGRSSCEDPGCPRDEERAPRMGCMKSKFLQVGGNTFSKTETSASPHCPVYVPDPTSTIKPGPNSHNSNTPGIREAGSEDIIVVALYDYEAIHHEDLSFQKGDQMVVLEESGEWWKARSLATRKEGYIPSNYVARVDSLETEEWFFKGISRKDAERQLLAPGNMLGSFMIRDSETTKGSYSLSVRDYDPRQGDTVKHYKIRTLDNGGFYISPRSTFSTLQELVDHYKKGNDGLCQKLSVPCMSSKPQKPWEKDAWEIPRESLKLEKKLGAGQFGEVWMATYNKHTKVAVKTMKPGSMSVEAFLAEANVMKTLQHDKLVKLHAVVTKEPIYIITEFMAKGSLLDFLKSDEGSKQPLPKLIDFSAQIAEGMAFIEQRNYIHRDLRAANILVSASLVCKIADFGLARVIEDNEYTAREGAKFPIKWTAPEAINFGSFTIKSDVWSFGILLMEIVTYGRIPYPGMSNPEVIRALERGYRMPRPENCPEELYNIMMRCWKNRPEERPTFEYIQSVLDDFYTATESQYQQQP
property.label: IC50

Inquiry: What value of IC50 has been recorded for this entry: c1ccc2c(CNNc3ncnc4sc5c(c34)CCCC5)c[nH]c2c1
Reply text: > 10 µM

====

biological target: DYRK1 (Homo sapiens, UniProt Q13627); test: Kinase selectivity panel; assay type: biochemical
property.label: IC50

Inquiry: What value of IC50 has been recorded for this entry: c1ccc2c(CNNc3ncnc4sc5c(c34)CCCC5)c[nH]c2c1 [B32B3]
Reply text: > 10 µM

====

target: CSK1E (Homo sapiens, UniProt P49674)
Sequence (P49674 whole entry): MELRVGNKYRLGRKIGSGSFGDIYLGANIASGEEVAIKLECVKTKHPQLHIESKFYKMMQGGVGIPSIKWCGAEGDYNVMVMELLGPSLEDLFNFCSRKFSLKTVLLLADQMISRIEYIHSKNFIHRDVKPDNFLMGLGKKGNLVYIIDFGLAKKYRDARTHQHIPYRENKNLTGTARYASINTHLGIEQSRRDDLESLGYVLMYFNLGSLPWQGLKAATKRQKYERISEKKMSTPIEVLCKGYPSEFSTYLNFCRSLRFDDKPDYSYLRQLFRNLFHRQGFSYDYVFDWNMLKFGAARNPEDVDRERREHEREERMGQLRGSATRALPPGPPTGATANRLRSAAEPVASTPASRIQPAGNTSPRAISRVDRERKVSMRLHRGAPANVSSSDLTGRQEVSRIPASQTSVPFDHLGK
property.label: IC50

Inquiry: What value of IC50 has been recorded for this entry: c1ccc2c(CNNc3ncnc4sc5c(c34)CCCC5)c[nH]c2c1
Reply text: > 10 µM

====

molecular target: STK25 (Homo sapiens)
property.label: IC50

Inquiry: What value of IC50 has been recorded for this entry: c1ccc2c(CNNc3ncnc4sc5c(c34)CCCC5)c[nH]c2c1 [B32B3]
Reply text: > 10 µM

====

biological target: AKT1 (Homo sapiens, UniProt P31749)
Sequence (P31749 whole entry): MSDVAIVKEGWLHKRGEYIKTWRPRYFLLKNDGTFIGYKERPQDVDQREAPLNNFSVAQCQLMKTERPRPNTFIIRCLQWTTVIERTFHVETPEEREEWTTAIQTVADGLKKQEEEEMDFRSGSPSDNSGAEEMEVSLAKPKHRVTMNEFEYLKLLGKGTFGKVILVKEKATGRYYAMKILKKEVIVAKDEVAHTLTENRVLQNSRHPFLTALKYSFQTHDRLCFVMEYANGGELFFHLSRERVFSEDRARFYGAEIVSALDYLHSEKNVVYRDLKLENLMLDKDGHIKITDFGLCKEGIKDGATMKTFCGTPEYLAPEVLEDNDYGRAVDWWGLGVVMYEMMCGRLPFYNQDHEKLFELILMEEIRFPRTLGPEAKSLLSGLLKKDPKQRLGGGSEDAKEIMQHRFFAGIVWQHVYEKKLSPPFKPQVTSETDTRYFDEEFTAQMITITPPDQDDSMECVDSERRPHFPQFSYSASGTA
property.label: IC50

Inquiry: Which measured IC50 belongs to c1ccc2c(CNNc3ncnc4sc5c(c34)CCCC5)c[nH]c2c1 , tested on AKT1 (Homo sapiens, UniProt P31749)?
Reply text: > 10 µM

====

biological target: UniProt:P49841
property.label: IC50

Inquiry: Which measured IC50 belongs to c1ccc2c(CNNc3ncnc4sc5c(c34)CCCC5)c[nH]c2c1 , tested on UniProt:P49841?
Reply text: > 10 µM

====

Target: CHK1 (Homo sapiens)
Sequence (O14757 1-476): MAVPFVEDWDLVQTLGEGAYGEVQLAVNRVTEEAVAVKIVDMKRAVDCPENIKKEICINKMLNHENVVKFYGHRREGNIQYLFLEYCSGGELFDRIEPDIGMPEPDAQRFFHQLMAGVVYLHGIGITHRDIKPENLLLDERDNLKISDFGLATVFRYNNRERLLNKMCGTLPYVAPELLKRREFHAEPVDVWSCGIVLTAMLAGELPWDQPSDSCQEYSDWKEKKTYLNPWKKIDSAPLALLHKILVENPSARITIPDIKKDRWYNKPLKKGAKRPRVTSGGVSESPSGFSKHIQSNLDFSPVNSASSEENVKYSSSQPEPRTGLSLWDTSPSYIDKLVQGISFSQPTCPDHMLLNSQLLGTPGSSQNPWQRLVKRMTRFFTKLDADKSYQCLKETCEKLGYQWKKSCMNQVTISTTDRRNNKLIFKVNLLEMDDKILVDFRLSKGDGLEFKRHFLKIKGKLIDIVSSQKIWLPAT
pIC50: −log10 of the molar value.
property.label: pIC50

Inquiry: What value of pIC50 has been recorded for this entry: c1ccc2c(CNNc3ncnc4sc5c(c34)CCCC5)c[nH]c2c1 [B32B3]
Reply text: < 5.00

====

molecular target: BUB1 (Homo sapiens); test: Kinase selectivity panel; format: biochemical
property.label: IC50

Inquiry: What value of IC50 has been recorded for this entry: c1ccc2c(CNNc3ncnc4sc5c(c34)CCCC5)c[nH]c2c1 [B32B3]
Reply text: > 10 µM

====

target: UniProt Q16513
property.label: IC50

Inquiry: What value of IC50 has been recorded for this entry: c1ccc2c(CNNc3ncnc4sc5c(c34)CCCC5)c[nH]c2c1
Reply text: > 10 µM

====

molecular target: CDK2 (Homo sapiens, UniProt P24941)
pIC50: −log10 of the molar value.
property.label: pIC50

Inquiry: What value of pIC50 has been recorded for this entry: c1ccc2c(CNNc3ncnc4sc5c(c34)CCCC5)c[nH]c2c1 [B32B3]
Reply text: < 5.00

====

Assay: B32B3 stability assessment in plasma
Type: in vitro ADME
Details: mouse plasma
Method: To assess the metabolic stability of B32B3 in mouse, dog, monkey, and human plasma, the compound was spiked into blank plasma to a concentration of 10 μM. […] After centrifugation, the supernatant was analyzed by LC-MS/MS. In vitro half-life of B32B3 in plasma was calculated using the slope (k) of the log-linear regression from the concentration remaining parent compound versus time. […]
property.label: half-life at 10 μM

Inquiry: What value of half-life at 10 μM has been recorded for this entry: c1ccc2c(CNNc3ncnc4sc5c(c34)CCCC5)c[nH]c2c1
Reply text: ~7 h

====

biological target: PKM2 (Homo sapiens)
property.label: IC50

Inquiry: What value of IC50 has been recorded for this entry: c1ccc2c(CNNc3ncnc4sc5c(c34)CCCC5)c[nH]c2c1
Reply text: > 10 µM

====

assay: Mouse pharmacokinetics of B32B3; assay type: in vivo; settings: plasma, dose of 5 mg/kg in mice
property.label: Cmax (nM)
Give the value in nM but do not write nM after it.

Inquiry: What value of Cmax has been recorded for this entry: c1ccc2c(CNNc3ncnc4sc5c(c34)CCCC5)c[nH]c2c1
Reply text: 1000

====

biological target: STK33 (Homo sapiens)
Sequence (Q9BYT3 whole entry): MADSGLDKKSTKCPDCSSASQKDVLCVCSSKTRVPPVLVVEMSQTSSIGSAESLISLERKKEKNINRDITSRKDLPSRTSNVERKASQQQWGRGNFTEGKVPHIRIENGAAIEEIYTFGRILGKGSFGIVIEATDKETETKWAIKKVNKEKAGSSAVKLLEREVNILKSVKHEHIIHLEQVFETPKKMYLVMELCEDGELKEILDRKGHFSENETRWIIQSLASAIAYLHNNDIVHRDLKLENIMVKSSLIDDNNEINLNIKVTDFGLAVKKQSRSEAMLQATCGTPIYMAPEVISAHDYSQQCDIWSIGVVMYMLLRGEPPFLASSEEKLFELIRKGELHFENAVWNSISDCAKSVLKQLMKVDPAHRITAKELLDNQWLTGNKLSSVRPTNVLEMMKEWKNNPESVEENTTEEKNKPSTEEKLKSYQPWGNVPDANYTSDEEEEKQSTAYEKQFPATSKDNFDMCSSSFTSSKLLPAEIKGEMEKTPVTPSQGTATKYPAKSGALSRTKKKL
property.label: IC50

Inquiry: What value of IC50 has been recorded for this entry: c1ccc2c(CNNc3ncnc4sc5c(c34)CCCC5)c[nH]c2c1
Reply text: > 10 µM

====

molecular target: CHK2 (Homo sapiens)
Sequence (O96017 whole entry): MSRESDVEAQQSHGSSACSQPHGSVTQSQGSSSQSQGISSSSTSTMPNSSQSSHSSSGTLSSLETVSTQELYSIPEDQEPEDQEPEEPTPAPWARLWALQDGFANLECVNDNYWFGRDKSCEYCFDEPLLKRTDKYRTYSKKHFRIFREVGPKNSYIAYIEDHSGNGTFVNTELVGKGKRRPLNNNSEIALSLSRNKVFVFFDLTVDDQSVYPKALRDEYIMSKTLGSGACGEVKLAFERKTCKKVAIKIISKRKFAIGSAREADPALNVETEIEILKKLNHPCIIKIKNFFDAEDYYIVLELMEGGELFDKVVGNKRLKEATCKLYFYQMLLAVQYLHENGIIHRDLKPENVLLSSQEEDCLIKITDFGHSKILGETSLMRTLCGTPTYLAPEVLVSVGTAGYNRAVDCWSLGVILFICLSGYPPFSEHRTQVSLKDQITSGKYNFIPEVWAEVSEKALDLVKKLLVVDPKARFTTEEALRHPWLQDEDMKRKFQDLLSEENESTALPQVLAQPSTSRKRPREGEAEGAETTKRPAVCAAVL
pIC50: −log10 of the molar value.
property.label: pIC50

Inquiry: Which measured pIC50 belongs to c1ccc2c(CNNc3ncnc4sc5c(c34)CCCC5)c[nH]c2c1 , tested on CHK2 (Homo sapiens)?
Reply text: < 5.00

====

target: CDK7 (Homo sapiens)
Sequence (P50613 whole entry): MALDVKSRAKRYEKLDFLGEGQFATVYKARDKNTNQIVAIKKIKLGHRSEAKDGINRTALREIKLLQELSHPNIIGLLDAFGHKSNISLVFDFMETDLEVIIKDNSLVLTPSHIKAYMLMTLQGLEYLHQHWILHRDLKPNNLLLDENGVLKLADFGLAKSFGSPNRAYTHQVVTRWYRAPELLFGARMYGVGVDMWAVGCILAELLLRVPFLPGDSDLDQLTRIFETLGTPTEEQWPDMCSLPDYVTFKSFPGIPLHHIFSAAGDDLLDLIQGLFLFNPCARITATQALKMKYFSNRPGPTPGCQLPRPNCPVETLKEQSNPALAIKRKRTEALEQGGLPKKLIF
Sequence (P51946 whole entry partner): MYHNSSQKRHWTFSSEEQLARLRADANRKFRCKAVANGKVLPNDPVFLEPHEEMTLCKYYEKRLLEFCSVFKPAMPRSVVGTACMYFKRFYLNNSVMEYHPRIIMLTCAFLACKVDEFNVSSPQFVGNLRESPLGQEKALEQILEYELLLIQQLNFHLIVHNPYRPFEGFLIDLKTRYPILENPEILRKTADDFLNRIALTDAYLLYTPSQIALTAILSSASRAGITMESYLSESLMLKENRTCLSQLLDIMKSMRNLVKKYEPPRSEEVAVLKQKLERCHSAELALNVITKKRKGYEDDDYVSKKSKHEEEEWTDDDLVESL
Sequence (P51948 whole entry partner): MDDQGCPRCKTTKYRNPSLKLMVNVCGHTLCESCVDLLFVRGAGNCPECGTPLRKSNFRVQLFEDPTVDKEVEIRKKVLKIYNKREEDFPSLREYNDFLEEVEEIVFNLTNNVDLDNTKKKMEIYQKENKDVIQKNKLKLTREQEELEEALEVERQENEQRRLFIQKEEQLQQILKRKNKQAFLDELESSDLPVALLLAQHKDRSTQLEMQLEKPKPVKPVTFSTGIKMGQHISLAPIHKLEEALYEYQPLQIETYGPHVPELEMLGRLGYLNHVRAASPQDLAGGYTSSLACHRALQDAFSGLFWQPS
pIC50: −log10 of the molar value.
property.label: pIC50

Inquiry: What value of pIC50 has been recorded for this entry: c1ccc2c(CNNc3ncnc4sc5c(c34)CCCC5)c[nH]c2c1
Reply text: < 5.00
